Target: Muscarinic acetylcholine receptor M1 (Homo sapiens, UniProt P11229)
Sequence (P11229 whole entry): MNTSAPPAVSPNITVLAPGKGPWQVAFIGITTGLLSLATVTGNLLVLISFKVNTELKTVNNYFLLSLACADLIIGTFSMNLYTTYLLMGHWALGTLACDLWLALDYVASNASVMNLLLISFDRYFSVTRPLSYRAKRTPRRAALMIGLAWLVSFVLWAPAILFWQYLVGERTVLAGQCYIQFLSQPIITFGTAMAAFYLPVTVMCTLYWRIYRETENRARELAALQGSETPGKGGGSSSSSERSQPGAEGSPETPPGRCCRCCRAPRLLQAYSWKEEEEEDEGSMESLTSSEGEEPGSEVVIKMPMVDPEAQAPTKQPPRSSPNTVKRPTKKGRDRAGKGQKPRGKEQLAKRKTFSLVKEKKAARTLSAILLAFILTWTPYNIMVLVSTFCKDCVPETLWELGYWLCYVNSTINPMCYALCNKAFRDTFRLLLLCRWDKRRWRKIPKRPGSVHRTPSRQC
assay_readout: pKi
Formally, pKi is defined as -log10 of the concentration c, with c in mol/L.

The reported pKi value, Muscarinic acetylcholine receptor M1 (Homo sapiens, UniProt P11229), for O=C(c1ccc(C(=O)N2CCC(N3CCCC3)CC2)c(Nc2ccccc2)c1)N1CCC(N2CCCC2)CC1 reads 7.01

====

Target: Mortality factor 4-like protein 1 (Homo sapiens, UniProt Q9UBU8)
Sequence (Q9UBU8 whole entry): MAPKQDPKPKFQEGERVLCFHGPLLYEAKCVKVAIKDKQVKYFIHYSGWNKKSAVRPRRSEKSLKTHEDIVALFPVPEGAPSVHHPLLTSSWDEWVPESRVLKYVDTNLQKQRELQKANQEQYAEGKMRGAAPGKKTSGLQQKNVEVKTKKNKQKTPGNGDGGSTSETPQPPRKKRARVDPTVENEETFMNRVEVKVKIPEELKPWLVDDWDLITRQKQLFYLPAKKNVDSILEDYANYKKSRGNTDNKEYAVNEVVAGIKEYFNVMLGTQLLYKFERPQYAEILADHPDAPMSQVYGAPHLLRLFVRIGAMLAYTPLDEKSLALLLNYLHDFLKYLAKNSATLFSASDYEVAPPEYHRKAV
assay_readout: Kd (µM)
Field: numeric (µM). Do not append units.

Kd for O=C(c1ccc(C(=O)N2CCC(N3CCCC3)CC2)c(Nc2ccccc2)c1)N1CCC(N2CCCC2)CC1 is 28.9

====

Biological target: Scm-like with four MBT domains protein 1 (Homo sapiens, UniProt Q9UHJ3)
Sequence (Q9UHJ3 whole entry, the tested form may be a part): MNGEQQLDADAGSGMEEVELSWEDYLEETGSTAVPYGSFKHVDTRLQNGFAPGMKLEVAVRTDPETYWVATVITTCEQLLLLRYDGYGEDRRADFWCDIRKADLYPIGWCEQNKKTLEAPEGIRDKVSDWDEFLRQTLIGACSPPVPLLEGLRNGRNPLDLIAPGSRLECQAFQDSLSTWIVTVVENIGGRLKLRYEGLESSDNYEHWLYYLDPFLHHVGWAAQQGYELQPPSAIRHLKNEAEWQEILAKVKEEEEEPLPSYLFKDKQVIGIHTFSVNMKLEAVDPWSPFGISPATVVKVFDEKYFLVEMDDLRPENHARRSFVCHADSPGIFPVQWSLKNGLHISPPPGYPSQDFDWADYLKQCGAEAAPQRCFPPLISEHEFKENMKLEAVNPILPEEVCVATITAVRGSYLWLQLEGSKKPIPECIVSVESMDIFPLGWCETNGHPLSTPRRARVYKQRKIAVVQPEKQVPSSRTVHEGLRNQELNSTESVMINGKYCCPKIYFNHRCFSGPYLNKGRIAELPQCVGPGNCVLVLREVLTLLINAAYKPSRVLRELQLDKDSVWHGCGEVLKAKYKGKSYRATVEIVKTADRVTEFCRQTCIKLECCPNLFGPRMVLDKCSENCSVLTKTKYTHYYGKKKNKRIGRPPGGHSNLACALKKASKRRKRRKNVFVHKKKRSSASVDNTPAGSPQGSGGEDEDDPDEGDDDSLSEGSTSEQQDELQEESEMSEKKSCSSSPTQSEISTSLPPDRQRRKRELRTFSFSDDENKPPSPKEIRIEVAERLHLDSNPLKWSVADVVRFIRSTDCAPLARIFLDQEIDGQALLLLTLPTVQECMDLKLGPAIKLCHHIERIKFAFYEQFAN
pIC50: −log10 of the molar value.
assay_readout: pIC50

The reported pIC50 value, Scm-like with four MBT domains protein 1 (Homo sapiens, UniProt Q9UHJ3), for O=C(c1ccc(C(=O)N2CCC(N3CCCC3)CC2)c(Nc2ccccc2)c1)N1CCC(N2CCCC2)CC1 reads < 4.52
